The origin of these recorded values is the METLIN SMRT retention time set (Domingo-Almenara et al. 2019).

# measurement_protocol: gradient 5% acetonitrile 3 min, to 50% in 2 min, to 85% in 15 min, held 3 min, 100 µL/min
# condition_details: column: Zorbax Extend-C18 2.1 x 50 mm; eluents: water / acetonitrile, 0.1% formic acid
property: RP-LC retention time
Value and unit, in that order.

Here are 2 compounds together with their reported answers.
compound="O=C(NCc1ccc(Cl)cc1)C1CCCN(c2ncnc3c2nc2n3CCCCC2)C1 (stereo not drawn)" measured_value="812 s"
compound="O=C(NCc1ccco1)C1CCN(C(=O)c2ncn3c2COC(c2ccc(F)cc2)C3)CC1 (stereo not drawn)" measured_value="711 s"

Turning now to a further record.
Noted for "O=C(N[C@H]1C[C@@H]2C[C@H]1CN2C(=O)Cc1c(F)cccc1Cl)c1cccs1" : its RP-LC retention time reads 710 s

###

# measurement_protocol: gradient 5% acetonitrile 3 min, to 50% in 2 min, to 85% in 15 min, held 3 min, 100 µL/min
# condition_details: column: Zorbax Extend-C18 2.1 x 50 mm; eluents: water / acetonitrile, 0.1% formic acid
property: RP-LC retention time

Provide each entry's RP-LC retention time from the list below.
1. O=C(c1nnc(-c2ccc(S(=O)(=O)N3CCCCC3)cc2)o1)N1CCC(N2CCCCC2)CC1
2. Cc1ccc(NC(=O)Cn2ccc3sccc3c2=O)c(Cl)c1
3. COc1ccc(NC(=O)Cn2c(=O)n(-c3ccc(F)cc3)c(=O)c3c2cc(C)n3C)cc1Cl

Key:
1. 654 s
2. 802 s
3. 873 s

###

# measurement_protocol: gradient 5% acetonitrile 3 min, to 50% in 2 min, to 85% in 15 min, held 3 min, 100 µL/min
# condition_details: column: Zorbax Extend-C18 2.1 x 50 mm; eluents: water / acetonitrile, 0.1% formic acid
Threshold rule: RP-LC retention time greater than or equal to 1000 s is 1; below that, 0.

Exercise: Hi, just wondering whether "CCn1cc(CCN2CCN(C(=O)Cc3cccs3)CC2)c2cccnc21" shows RP-LC retention time of 1000 s or higher.
Key: 0

Exercise: Textbook exercise: given the entry "COc1ccc(C(=O)N2CCc3ccc(C(=O)NCc4ccc(C)o4)cc32)cc1" , state whether its RP-LC retention time is greater than or equal to 1000 s.
Key: 0

Exercise: Test whether the molecule "CC(C)c1noc(C2(NC(=O)CCC3CCCC3)CCCCC2)n1" records RP-LC retention time of 1000 s or higher.
Key: 1

Exercise: For this molecule, is measured RP-LC retention time 1000 s or higher? O=C(NC1CCN(c2cc(-c3ccccc3)[nH]n2)C1)c1ccc(Br)cc1 (stereo not drawn)
Key: 0

Exercise: In plain terms: is recorded RP-LC retention time at least 1000 s for "CCc1ccc(CNC(=O)Cc2c(C(=O)O)c(C)cn2C)cc1" ?
Key: 0

###

# measurement_protocol: gradient 5% acetonitrile 3 min, to 50% in 2 min, to 85% in 15 min, held 3 min, 100 µL/min
# condition_details: column: Zorbax Extend-C18 2.1 x 50 mm; eluents: water / acetonitrile, 0.1% formic acid
property: RP-LC retention time (s)
Give bare numbers, in s.

For each listed entry, give its RP-LC retention time.
1. COc1ccc(S(=O)(=O)N2CCC3(CC2)c2nccn2CCN3C)cc1OC
2. O=C(Cn1cccc1-c1nnc(-c2ccccc2)o1)N1CCN(c2ccccc2F)CC1
3. COc1ccc(CNC(=O)c2cn3cc(C)ccc3n2)cc1OC
4. Cc1ccc(Cl)cc1NS(=O)(=O)c1c(C)sc(C)c1-c1cc(C(F)(F)F)on1
5. CC(=O)Nc1ccc(OCC(=O)NC2CCN(Cc3ccccc3)CC2)nc1

Key:
610
996
614
1220
572

For each entry beneath this line, provide reported RP-LC retention time.
1. Cc1ccc(Nc2c(-c3cc(Br)ccc3O)nc3ncccn23)cc1Cl
2. Cc1ccc(-c2coc(-c3ccc(NC(=O)NCc4cccc(F)c4)cc3)n2)c(C)c1
3. CCCn1c(-c2cccc(C(=O)NCc3cccc(C(F)(F)F)c3)c2)nc2cccnc21
4. CC1=NS(=O)(=O)N(Cc2ccccc2)C=C1C(=O)OCc1ccccc1Cl
5. CCOc1cccc(Cn2c(=O)c3sccc3n(Cc3nc(-c4ccc(C)cc4)no3)c2=O)c1
6. Cc1sc2ncnc(N3CCCC(C)C3)c2c1C(=O)Nc1cc(F)c(F)cc1F (configuration not stated)
7. CCCN1C(=O)COc2ccc(-c3noc(Cc4ccc(OC)c(OC)c4)n3)cc21
8. O=C(C1CCN(S(=O)(=O)c2cc(-c3noc(C4CC4)n3)cs2)CC1)N1CCCCC1

Key:
1170
1200
936
1160
1120
858
993
931
